# System: UACC-257 melanoma
# procedure text: NCI tumour cell line growth inhibition, 48 h
TGI for assorted compounds

>  <compound>
O=C1Nc2cccc(Cl)c2/C1=C\c1c(Cl)nc2sccn12

>  <TGI>
> 100 µM

$$$$
>  <compound>
CCc1n[nH]c(=O)n1/N=C/c1ccccc1Cl

>  <TGI>
> 100 µM

$$$$
>  <compound>
O=C1C(/C=C/c2ccc(Cl)cc2)=NNC2N1N=C1NC(=O)C3(NN12)c1ccccc1-c1ccccc13 (configuration not stated)

>  <TGI>
> 100 µM

$$$$
>  <compound>
Brc1ccc(-c2nnc(-c3nn(-c4ccccc4)c4nc5ccccc5nc34)o2)cc1

>  <TGI>
> 100 µM

$$$$
>  <compound>
COc1cc(-c2oc3c(OC)c(O)c(OC)c(O)c3c(=O)c2OC)cc(O)c1OC

>  <TGI>
> 100 µM

$$$$
>  <compound>
CC(=O)Oc1cc(OC(C)=O)c2c(=O)c3ccccc3[nH]c2c1

>  <TGI>
85.1 µM

$$$$
>  <compound>
O=[N+]([O-])c1ccc(-c2nc(-c3ccccc3)c(-c3ccccc3)n2-c2ccccc2)cc1

>  <TGI>
5.87 µM

$$$$
>  <compound>
CC(C)(C)c1nc2c(o1)C(=O)c1ccccc1C2=O

>  <TGI>
1.43 µM

$$$$
>  <compound>
CCn1c2c(n(CC)c1=S)-c1c(n(CC)c(=S)n1CC)SSSS2

>  <TGI>
22.6 µM

$$$$
>  <compound>
C/C(=N\NC(=O)c1ccncc1)c1ccc2ccccc2c1O

>  <TGI>
24.6 µM

$$$$
>  <compound>
O=[N+]([O-])c1ccc(C2=NOC(c3ccccc3F)N2C23CC4CC(CC(C4)C2)C3)cc1 (configuration not stated)

>  <TGI>
> 100 µM

$$$$
>  <compound>
O=C(O)C1CCCN1Cc1cc2ccccc2c2ccccc12 (configuration not stated)

>  <TGI>
> 100 µM

$$$$
>  <compound>
COc1cc(NCCCCN=C(N)NC(N)=NC(C)C)c2ncccc2c1

>  <TGI>
10.5 µM

$$$$
>  <compound>
Cc1ccc(-c2c(C#N)c(S)n(NS(=O)(=O)c3ccc(C)cc3)c(=O)c2C#N)cc1

>  <TGI>
> 100 µM

$$$$
>  <compound>
CC(C)(C)[Si](C)(C)OCC1OC(n2cnc3c(NC(=O)c4ccccc4)ncnc32)CC1O (configuration not stated)

>  <TGI>
> 100 µM

$$$$
>  <compound>
CN(NC(=O)CCCl)C1=NCCN1

>  <TGI>
> 100 µM

$$$$
>  <compound>
CN(C)c1ccc(/C=C(\C#N)C(N)=C(C#N)C#N)cc1

>  <TGI>
> 100 µM

$$$$
>  <compound>
CC(=O)C(=[N+]=[N-])C(=O)OC(C)(C)C#N

>  <TGI>
> 10 µM

$$$$
>  <compound>
O=C(CC(=O)N1N=C(N2CCCCC2)CC1c1ccccc1)Nc1ccc(Cl)cc1 (configuration not stated)

>  <TGI>
> 100 µM

$$$$
>  <compound>
CCn1cc(/C=C/C(C)c2cn(CC)c(=O)[nH]c2=O)c(=O)[nH]c1=O (configuration not stated)

>  <TGI>
> 100 µM

$$$$
>  <compound>
CCOC(=O)C(=O)Nc1ccc(C)cc1C

>  <TGI>
> 100 µM

$$$$
>  <compound>
COC(OC)c1cccc2c1C(=O)CCC1(O)c3ccccc3C1C2 (configuration not stated)

>  <TGI>
> 100 µM

$$$$
